Target: T1, human LAG-3 (His tag) (human, UniProt P18627 23-450, limits assumed)
T1 construct: also called LAG-3-His antigen; not shown: His tag
T1 sequence (looked up): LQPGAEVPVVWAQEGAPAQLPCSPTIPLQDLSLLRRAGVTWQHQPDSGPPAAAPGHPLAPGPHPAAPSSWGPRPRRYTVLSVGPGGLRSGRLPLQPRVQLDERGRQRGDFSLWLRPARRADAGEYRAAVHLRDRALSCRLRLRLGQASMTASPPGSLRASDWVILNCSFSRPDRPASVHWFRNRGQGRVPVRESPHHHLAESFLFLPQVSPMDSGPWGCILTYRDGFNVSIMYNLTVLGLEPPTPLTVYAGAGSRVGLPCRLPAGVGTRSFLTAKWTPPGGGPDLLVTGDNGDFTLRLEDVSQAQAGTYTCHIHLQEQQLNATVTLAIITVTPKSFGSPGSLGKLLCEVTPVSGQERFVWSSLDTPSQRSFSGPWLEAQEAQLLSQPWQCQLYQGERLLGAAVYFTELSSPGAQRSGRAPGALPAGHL
Assay: BLI (ForteBio Octet), LAG-3 His on Ni-NTA sensor
quantity: kon (M⁻¹ s⁻¹)
// units = M⁻¹ s⁻¹; emit number, no label

INSERT INTO measurements (binder, result_number) VALUES
  ('humanized antibody AB12T4 (antibody, human IgG4 S228P, kappa, V domains shown, also called FITC-AB12T4) VH: DVQLQESGPGLVKPSQTLSLTCTVTGYSITSFYSWHWIRQFPGKGLEWMGCIQYSGDTDSNPSLKSRITITRDTSENQLFLKLSSVTAADTATYYCARSPYDSDPYYVMDYWGQGTLVTVSS VL: DIVMSQSPDSLAVSLGERITMTCKSSQSLLYSGNQKNYLAWYQQKPGQSPTLLIYWASTRDSGVPDRLTGSGSGTDFTLTISSVQAEDVAVYYCQQYYAYPYTFGQGTKLEIKR', 120000),
  ('murine monoclonal antibody #27 (antibody, IgG4, V domains shown, Purified from hybridoma supernatant; also called murine antibody #27; monoclonal antibody produced by hybridoma cell line #27 (CCTCC NO.C2017183)) VH: DVHLQESGPDLVKPSQSLSLTCTVTGYSITSFYSWHWIRQFPGNKLEWMGCIQYSGDTDSNPSLKSRISITRDTSENQLFLHLNSVTTEDTATYYCARSPYDSDPYYVMDYWGQGTSVTVSS VL: DIVMSQSPSSLAVSVGEKITMTCKSSQSLLYSGNQKNYLAWYQQKPGQSPTLLIYWASTRDSGVPDRLTGSGSGTDFTLTISSVKAEDLAVYYCQQYYAYPYTFGGGTKLETK', 121000),
  ('human-mouse chimeric antibody AB12T2 (antibody, human IgG4 S228P, kappa, V domains shown) VH: DVHLQESGPDLVKPSQSLSLTCTVTGYSITSFYSWHWIRQFPGNKLEWMGCIQYSGDTDSNPSLKSRISITRDTSENQLFLHLNSVTTEDTATYYCARSPYDSDPYYVMDYWGQGTSVTVSS VL: DIVMSQSPSSLAVSVGEKITMTCKSSQSLLYSGNQKNYLAWYQQKPGQSPTLLIYWASTRDSGVPDRLTGSGSGTDFTLTISSVKAEDLAVYYCQQYYAYPYTFGGGTKLETKR', 100000);

The binder identified as humanized antibody AB12T3 (antibody, human IgG4, kappa, V domains shown) VH: DVQLQESGPGLVKPSQTLSLTCTVTGYSITSFYSWHWIRQHPGKGLEWMGCIQYSGDTDSNPSLKSRITITRDTSENQLSLKLSSVTAADTAVYYCARSPYDSDPYYVMDYWGQGTLVTVSS VL: DIVMSQSPDSLAVSLGERATITCKSSQSLLYSGNQKNYLAWYQQKPGQPPTLLIYWASTRDSGVPDRLTGSGSGTDFTLTISSLQAEDVAVYYCQQYYAYPYTFGQGTKLEIKR registered its kon at 94700

The binder identified as humanized antibody AB12T5 (antibody, human IgG4, kappa, V domains shown) VH: QVQLQESGPGLVKPSQTLSLTCTVSGYSITSFYSWHWIRQHPGKGLEWIGCIQYSGDTDSNPSLKSRVTISVDTSKNQFSLKLSSVTAADTAVYYCARSPYDSDPYYVMDYWGQGTSVTVSS VL: DIVMTQSPDSLAVSLGERATITCKSSQSLLYSGNQKNYLAWYQQKPGQPPKLLIYWASTRDSGVPDRFSGSGSGTDFTLTISSLQAEDVAVYYCQQYYAYPYTFGGGTKLEIKR registered its kon at 92400
